biological target: T1, Goat anti-Human Kappa; assay: ELISA, positive control; further: test concentration or dose not given here
T1 construct: Positive control of the ELISA; also called biotinylated goat anti-human kappa light chain
Returns T if the recorded optical density is greater than or equal to 3 OD, and F otherwise.

INSERT INTO results (binder, assigned_class) VALUES
  ('371_A08 (antibody, V domains shown) VH: EVQLLESGGGLVQPGGSLRLSCAASGFTFSSYGMHWVRQAPGKGLEWVSSINYNGGYTSYADSVKGRFTISRDNSKNTLYLQMNSLRAEDTAVYYCARSANWHDTALDYWGQGTLVTVSS VL: DIQMTQSPSSLSASVGDRVTITCRASQSILSYLNWYQQKPGKAPKLVIYAATSRASGVPSRFSGSGSGTDFTLTISSLQPEDFATYYCQQSYELPLTFGGGTKVEIK', 'F'),
  ('369_F03 (antibody, V domains shown) VH: EVQLLESGGGLVQPGGSLRLSCAASGFTFSDYGMNWVRQAPGKGLEWVSGINYNSGYTSYADSVKGRFTISRDNSKNTLYLQMNSLRAEDTAVYYCARSANWHDTALDYWGQGTLVTVSS VL: DIQMTQSPSSLSASVGDRVTITCRASQSIVSYVNWYQQKPGKAPKLLIYAATSLASGVPSRFSGSGSGTDFTLTISSLQPEDFATYYCQQSYDSPLTFGGGTKVEIK', 'T'),
  ('368_B07 (antibody, V domains shown) VH: EVQLLESGGGLVQPGGSLRLSCAASGFTFSDYSMNWVRQAPGKGLEWVSNINYNGGYKSYADSVKGRFTISRDNSKNTLYLQMNSLRAEDTAVYYCARSANWHDTALDYWGQGTLVTVSS VL: DIQMTQSPSSLSASVGDRVTITCRASQSIVSYLNWYQQKPGKAPKLLIYAATSLASGVPSRFSGSGSGTDFTLTISSLQPEDFATYYCQQSYSSPLTFGGGTKVEIK', 'T'),
  ('371_F06 (antibody, V domains shown) VH: EVQLLESGGGLVQPGGSLRLSCAASGFTFDSYSMNWVRQAPGKGLEWVANINYNGGYTSYADSVKGRFTISRDNSKNTLYLQMNSLRAEDTAVYYCARSANWHDTALDYWGQGTLVTVSS VL: DIQMTQSPSSLSASVGDRVTITCRASQSIVSYLNWYQQKPGKAPKLVIYAATSRHSGVPSRFSGSGSGTDFTLTISSLQPEDFATYYCQQSYNSPLTFGGGTKVEIK', 'T');

Does the reported optical density for 370_G03 (antibody, V domains shown) VH: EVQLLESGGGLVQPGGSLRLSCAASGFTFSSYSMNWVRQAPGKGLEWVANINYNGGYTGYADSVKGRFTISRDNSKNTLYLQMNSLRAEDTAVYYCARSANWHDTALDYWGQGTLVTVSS VL: DIQMTQSPSSLSASVGDRVTITCRASQSILTYVNWYQQKPGKAPKLVIYATTSRASGVPSRFSGSGSGTDFTLTISSLQPEDFATYYCQQSYNNPLTFGGGTKVEIK fall at or above the 3 OD mark? T
